Entry source: patent US4778792A

# ASSAY: Normolipemic activity, lipid balance in normal or hypercholesterolemic mice
# Format: in vivo
# CONDITION: Mus musculus, po, 360 h, per os, 50 mg/kg daily for 15 days, with respect to a control group, read-out: TG (Triglycerids) %
Measured change in vivo at 50 mg/kg values are reported for all entries that follow.
Report only the number, with the unit % understood.

Consider the following illustrative entries.
COMPOUND: CCCC(=O)c1ccc2c(c1)OC(C)(C)C(=O)N2CCC(=O)O
U: %
change in vivo at 50 mg/kg: -8
--
COMPOUND: CC1Oc2cc(C(=O)C=Cc3ccc(Cl)cc3)ccc2N(C)C1=O (stereo not shown)
U: %
change in vivo at 50 mg/kg: -9
--
COMPOUND: CCCC(=O)c1ccc2c(c1)OC(C)(C)C(=O)N2C
U: %
change in vivo at 50 mg/kg: -12

Please find the next compound below.
// change in vivo at 50 mg/kg lookup, key: CC1Oc2cc(C(=O)c3ccccc3)ccc2NC1=O (stereo not shown)
18
